- Species: Homo sapiens
- assayRemarks: Liver toxicity in human assessed as induction of drug-induced liver injury by measuring severity class index; further: key of the grades not given here
valueKind: DILI_severity_class
Give bare numbers.

Solved cases below.
Cc1nc2c([nH]1)-c1ccccc1N(C(=O)c1ccc(NC(=O)c3ccccc3-c3ccccc3)cc1)CC2 :: 0
CCN(CC)CCN1C(=O)CN=C(c2ccccc2F)c2cc(Cl)ccc21 :: 4
CCOc1nc2cccc(C(=O)O)c2n1Cc1ccc(-c2ccccc2-c2nnn[nH]2)cc1 :: 3
CO/N=C(\C(=O)N[C@@H]1C(=O)N2C(C(=O)O)=CCS[C@H]12)c1csc(N)n1 :: 4
C=CC[N+]1([C@H]2C[C@H]3[C@@H]4CC[C@H]5C[C@H](O)C(N6CCOCC6)C[C@]5(C)[C@H]4CC[C@]3(C)[C@H]2OC(C)=O)CCCC1 (stereo partly drawn) :: 0

Please go through the list and note DILI_severity_class for each compound.
1. CN1CCC[C@@H]1Cc1c[nH]c2ccc(CCS(=O)(=O)c3ccccc3)cc12
2. Cl.N [AMMONIUM CHLORIDE]

3
0
